Task for the reader: assign each of the following compounds its reported IC50.
- SUBJECT_OF_TEST: Keap1/Nrf2 (Homo sapiens)
- TEST_NAME: Inhibition of Keap1-Nrf2 protein-protein interaction (unknown origin) preincubated for 30 mins followed by Terbium labeled anti-His antibody addition for 30 mins prior to fluorescein labeled-9mer Nrf2 peptide addition and measured after 60 mins by TR-FRET assay
One number for each entry, in nM.

# SMILES_REPR, MEASUREMENT_UNITS, REPORTED_RESULT
rows = [
    ("COc1ccc(S(=O)(=O)N(CC(=O)O)c2cc(-c3ccc(N4C(=O)c5ccccc5C4=O)cc3)c(N(CC(=O)O)S(=O)(=O)c3ccc(OC)cc3)c3ccccc23)cc1", "nM", 7.1),
    ("COc1ccc(S(=O)(=O)N(CC(=O)O)c2cc(CCCN3C(=O)c4ccccc4C3=O)c(N(CC(=O)O)S(=O)(=O)c3ccc(OC)cc3)c3ccccc23)cc1", "nM", 2.5),
    ("COc1ccc(S(=O)(=O)N(CC(=O)O)c2cc(CCC(=O)N3CCOCC3)c(N(CC(=O)O)S(=O)(=O)c3ccc(OC)cc3)c3ccccc23)cc1", "nM", 6.9),
    ("COc1ccc(S(=O)(=O)N(CC(=O)O)c2cc(-c3ccc(C#N)cc3)c(N(CC(=O)O)S(=O)(=O)c3ccc(OC)cc3)c3ccccc23)cc1", "nM", 9.2),
    ("COc1ccc(-c2cc(N(CC(=O)O)S(=O)(=O)c3ccc(OC)cc3)c3ccccc3c2N(CC(=O)O)S(=O)(=O)c2ccc(OC)cc2)cc1", "nM", 13.1),
    ("COc1ccc(S(=O)(=O)N(CC(=O)O)c2cc(CCCN(C)Cc3ccccc3)c(N(CC(=O)O)S(=O)(=O)c3ccc(OC)cc3)c3ccccc23)cc1", "nM", 73.6),
]

Batch of 5 compounds: report IC50 for each.
1. COc1ccc(S(=O)(=O)N(CC(=O)O)c2cc(CCC(N)=O)c(N(CC(=O)O)S(=O)(=O)c3ccc(OC)cc3)c3ccccc23)cc1
2. COc1ccc(S(=O)(=O)N(CC(=O)O)c2cc(-c3ccccc3)c(N(CC(=O)O)S(=O)(=O)c3ccc(OC)cc3)c3ccccc23)cc1
3. COc1ccc(S(=O)(=O)N(CC(N)=O)c2cc(CCC(=O)O)c(N(CC(N)=O)S(=O)(=O)c3ccc(OC)cc3)c3ccccc23)cc1
4. COc1ccc(S(=O)(=O)N(CC(=O)O)c2cc(Sc3ccccc3)c(N(CC(=O)O)S(=O)(=O)c3ccc(OC)cc3)c3ccccc23)cc1
5. COc1ccc(S(=O)(=O)N(CC(=O)O)c2cc(CCC(=O)NC(C)C)c(N(CC(=O)O)S(=O)(=O)c3ccc(OC)cc3)c3ccccc23)cc1

Reply text:
1: 11.7; 2: 7.7; 3: 22.7; 4: 5.8; 5: 12.6

###

- SUBJECT_OF_TEST: Keap1/Nrf2 (Homo sapiens, UniProt Q14145)
- Sequence (Q16236 whole entry): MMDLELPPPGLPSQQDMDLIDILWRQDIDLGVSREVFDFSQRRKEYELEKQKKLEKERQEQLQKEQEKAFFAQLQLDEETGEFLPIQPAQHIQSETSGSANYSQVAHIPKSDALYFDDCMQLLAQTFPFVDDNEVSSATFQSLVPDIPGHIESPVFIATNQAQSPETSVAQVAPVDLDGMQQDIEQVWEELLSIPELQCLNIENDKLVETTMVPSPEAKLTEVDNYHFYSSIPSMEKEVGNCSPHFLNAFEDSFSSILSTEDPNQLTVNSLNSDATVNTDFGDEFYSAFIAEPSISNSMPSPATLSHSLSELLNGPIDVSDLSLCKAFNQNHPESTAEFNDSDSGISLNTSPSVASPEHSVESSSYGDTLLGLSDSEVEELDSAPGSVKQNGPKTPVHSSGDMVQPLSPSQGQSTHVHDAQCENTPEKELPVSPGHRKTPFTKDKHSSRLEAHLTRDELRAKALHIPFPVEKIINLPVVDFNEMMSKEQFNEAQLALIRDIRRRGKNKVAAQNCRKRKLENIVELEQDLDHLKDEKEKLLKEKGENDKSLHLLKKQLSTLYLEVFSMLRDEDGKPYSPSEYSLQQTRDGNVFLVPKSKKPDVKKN
- Sequence (Q14145 whole entry): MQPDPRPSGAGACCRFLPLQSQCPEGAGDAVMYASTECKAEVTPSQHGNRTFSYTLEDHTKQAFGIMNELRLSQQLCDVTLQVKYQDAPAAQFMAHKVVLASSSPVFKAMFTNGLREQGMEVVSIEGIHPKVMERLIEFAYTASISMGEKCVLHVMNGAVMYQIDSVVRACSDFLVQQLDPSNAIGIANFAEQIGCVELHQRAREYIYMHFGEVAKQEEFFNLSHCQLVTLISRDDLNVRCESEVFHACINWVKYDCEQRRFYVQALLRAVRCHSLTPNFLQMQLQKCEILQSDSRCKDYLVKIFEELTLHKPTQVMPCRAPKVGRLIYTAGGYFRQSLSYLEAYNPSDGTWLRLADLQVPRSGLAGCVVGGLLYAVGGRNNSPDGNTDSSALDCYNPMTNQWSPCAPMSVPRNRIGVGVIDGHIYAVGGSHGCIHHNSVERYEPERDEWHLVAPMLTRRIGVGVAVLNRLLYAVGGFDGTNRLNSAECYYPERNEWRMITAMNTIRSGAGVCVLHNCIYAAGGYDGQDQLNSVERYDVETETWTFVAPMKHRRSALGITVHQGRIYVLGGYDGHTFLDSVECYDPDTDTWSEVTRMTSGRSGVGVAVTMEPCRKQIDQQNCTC
- TEST_NAME: Inhibition of Keap1-Nrf2 protein-protein interaction (unknown origin) preincubated for 30 mins followed by Terbium labeled anti-His antibody addition for 30 mins prior to fluorescein labeled-9mer Nrf2 peptide addition and measured after 60 mins by TR-FRET assay
READOUT_LABEL: log10(Ki) (log10 of the value in nM)
Hello, just confirming the data are log10 of Ki with units of nM.

These solved cases illustrate the format of a correct answer.
# SMILES_REPR, SUBJECT_OF_TEST, log10(Ki)
records = [
    ("COc1ccc(S(=O)(=O)N(CC(=O)O)c2cc(CCCN(C)Cc3ccccc3)c(N(CC(=O)O)S(=O)(=O)c3ccc(OC)cc3)c3ccccc23)cc1", "Keap1/Nrf2 (Homo sapiens, UniProt Q14145)", 1.52),
    ("COc1ccc(S(=O)(=O)N(CC(=O)O)c2cc(CCC(N)=O)c(N(CC(=O)O)S(=O)(=O)c3ccc(OC)cc3)c3ccccc23)cc1", "Keap1/Nrf2 (Homo sapiens, UniProt Q14145)", 0.62),
    ("COc1ccc(S(=O)(=O)N(CC(=O)O)c2cc(-c3ccc(C#N)cc3)c(N(CC(=O)O)S(=O)(=O)c3ccc(OC)cc3)c3ccccc23)cc1", "Keap1/Nrf2 (Homo sapiens, UniProt Q14145)", 0.49),
]

Batch of 3 compounds: report log10(Ki) for each.
1. COc1ccc(S(=O)(=O)N(CC(=O)O)c2cc(-c3ccc(N4C(=O)c5ccccc5C4=O)cc3)c(N(CC(=O)O)S(=O)(=O)c3ccc(OC)cc3)c3ccccc23)cc1
2. COc1ccc(S(=O)(=O)N(CC(=O)O)c2cc(-c3ccccc3)c(N(CC(=O)O)S(=O)(=O)c3ccc(OC)cc3)c3ccccc23)cc1
3. COc1ccc(S(=O)(=O)N(CC(N)=O)c2cc(CCC(=O)O)c(N(CC(N)=O)S(=O)(=O)c3ccc(OC)cc3)c3ccccc23)cc1

Reply text:
0.32
0.38
0.97
